activity coefficient values for the compounds below.
# test protocol: activity coefficient (dimensionless); of the first substance listed, at infinite dilution; xn = mol fraction of the nth substance listed
# cond: 373 K; 101 kPa; Liquid; Chromatography; x1 = 0
# output: bare number, no unit

These solved cases illustrate the format of a correct answer.
> print(dat)
                                   compound      measurement.kind  result
1  CC(C)O [propan-2-ol] + CCOS(=O)(=O)[O-].CC[n+]1cccc(C)c1  activity coefficient    0.92
2  CCCCO [butan-1-ol] + CCOS(=O)(=O)[O-].CC[n+]1cccc(C)c1  activity coefficient    1.08

Problem: What activity coefficient value was documented for this compound, CCC(C)O (stereo not given) [butan-2-ol] + CCOS(=O)(=O)[O-].CC[n+]1cccc(C)c1 ?
Solution: 1.23

Problem: Given CO [methanol] + CCOS(=O)(=O)[O-].CC[n+]1cccc(C)c1 , state its recorded activity coefficient.
Solution: 0.33

Problem: Looking for the measured activity coefficient of CCCO [propan-1-ol] + CCOS(=O)(=O)[O-].CC[n+]1cccc(C)c1 , can you help?
Solution: 0.78

###

# test protocol: activity coefficient (dimensionless); of the first substance listed, at infinite dilution; xn = mol fraction of the nth substance listed
# cond: 363.06 K; 101 kPa; Liquid; Chromatography; x1 = 0
measurement kind: activity coefficient
Note: the reply should be a number with no unit written.

Worked cases, answers included:
> print(dat)
                                   compound  result
1  CCCO [propan-1-ol] + CCOS(=O)(=O)[O-].CC[n+]1cccc(C)c1    0.79
2  CC(=O)C(C)C [3-methyl-2-butanone] + CCOS(=O)(=O)[O-].CC[n+]1cccc(C)c1    4.79
3  CC(=O)CC(C)C [4-methylpentan-2-one] + CCOS(=O)(=O)[O-].CC[n+]1cccc(C)c1    7.05

Please turn your attention to the following entry.
Problem: Please look up its activity coefficient: CC(C)O [propan-2-ol] + CCOS(=O)(=O)[O-].CC[n+]1cccc(C)c1
Solution: 0.93
